- Tested on: 293T cells
- procedure details: Cytotoxicity test (CCK-8 cell viability) in 293T cells
- Type: cell-based, human
- measurement conditions: 293T cell line, 100 uM
measured parameter: Cell viability test results (CCK) 100 uM (%<)
Express the result in %< but write the number alone.

// fetch Cell viability test results (CCK) 100 uM for `C[C@H]1CC[C@@H](C(=O)O)CN1C(=O)Cc1ccc(-c2ccc(-c3cccnc3)cc2)cc1` ; system: 293T cells
55

// fetch Cell viability test results (CCK) 100 uM for `C[C@H]1CC[C@@H](C(=O)O)CN1C(=O)Cc1ccc(-c2ncccn2)cc1` ; system: 293T cells
80

// fetch Cell viability test results (CCK) 100 uM for `C[C@H]1CC[C@@H](C(=O)O)CN1C(=O)Cc1ccc(-c2ccccn2)cc1` ; system: 293T cells
75

// fetch Cell viability test results (CCK) 100 uM for `C[C@H]1CC[C@@H](C(=O)O)CN1C(=O)Cc1ccc(-c2ccc(C3CC3)nc2)cc1` ; system: 293T cells
90

// fetch Cell viability test results (CCK) 100 uM for `C[C@H]1CC[C@@H](C(N)=O)CN1C(=O)Cc1ccc(-c2ncc(F)cn2)cc1` ; system: 293T cells
70

// fetch Cell viability test results (CCK) 100 uM for `C[C@H]1CC[C@@H](C(=O)O)CN1C(=O)Cc1ccc2nccnc2c1` ; system: 293T cells
95

// fetch Cell viability test results (CCK) 100 uM for `C[C@H]1CC[C@@H](C(=O)O)CN1C(=O)Cc1ccc(-c2cccs2)cc1` ; system: 293T cells
60

// fetch Cell viability test results (CCK) 100 uM for `C[C@H]1CC[C@@H](C(=O)O)CN1C(=O)Cc1ccc(-c2cncnc2)cc1` ; system: 293T cells
90

----------
- Test system: 293T cells
- procedure details: Cytotoxicity test (CCK-8 cell viability) in 293T cells
- Type: cell-based, human
- measurement conditions: 293T cell line, 10 uM
measured parameter: Cell viability test results (CCK) 10 uM (%<)
Express the result in %< but write the number alone.

Take a look at these entries with their results.
CCN(CC)c1ccc(-c2ccc(CC(=O)N3C[C@H](C(=O)O)CC[C@@H]3C)cc2)cc1; 85
C[C@H]1CC[C@@H](C(=O)O)CN1C(=O)Cc1ccc(-c2ccc([N+](=O)[O-])cc2)cc1; 99

// fetch Cell viability test results (CCK) 10 uM for `C[C@H]1CC[C@@H](C(=O)O)CN1C(=O)Cc1ccc(-c2ncc(F)cn2)cc1` ; system: 293T cells
90

// fetch Cell viability test results (CCK) 10 uM for `C[C@H]1CC[C@@H](C(=O)O)CN1C(=O)Cc1ccc2nccnc2c1` ; system: 293T cells
95

// fetch Cell viability test results (CCK) 10 uM for `C[C@@H]1CC[C@H](C(=O)O)CN1C(=O)Cc1ccc(-c2cncnc2)cc1` ; system: 293T cells
80

// fetch Cell viability test results (CCK) 10 uM for `C[C@@H]1CC[C@H](C(=O)O)CN1C(=O)Cc1ccc(-c2cccnc2)cc1` ; system: 293T cells
99

// fetch Cell viability test results (CCK) 10 uM for `C[C@H]1CC[C@@H](C(=O)O)CN1C(=O)Cc1ccc(-c2cccc([N+](=O)[O-])c2)cc1` ; system: 293T cells
90

// fetch Cell viability test results (CCK) 10 uM for `C[C@H]1CC[C@@H](C(=O)O)CN1C(=O)Cc1ccc(-c2cccc(N)c2)cc1` ; system: 293T cells
90

// fetch Cell viability test results (CCK) 10 uM for `O=C(NO)[C@H]1CCCN1C(=O)Cc1ccc(-c2cncnc2)cc1` ; system: 293T cells
99

----------
- Test system: 293T cells
- procedure details: Cytotoxicity test (CCK-8 cell viability) in 293T cells
- Format: cell-based, human
- measurement conditions: 293T cell line, 100 uM
Measured Cell viability test results (CCK) 100 uM, listed per entry for reference.
Express the result in %< but write the number alone.

Take a look at these entries with their results.
C[C@H]1CC[C@@H](C(=O)O)CN1C(=O)Cc1ccc(-c2ccc(C(F)(F)F)nc2)cc1 [BnH12083]; 75
C[C@H]1CC[C@@H](C(=O)O)CN1C(=O)Cc1ccc(-c2ccnnc2)cc1 [BnH12045]; 99
C[C@H]1CC[C@@H](C(=O)O)CN1C(=O)Cc1ccc(-c2cnco2)cc1 [BnH12057]; 55
C[C@H]1CC[C@@H](C(=O)O)CN1C(=O)Cc1ccc(-c2nccn2C)cc1 [BnH12053]; 95
C[C@H]1CC[C@@H](C(=O)O)CN1C(=O)Cc1ccc(-c2ccc(-c3ccccc3)nc2)cc1 [BnH12087]; 45

// fetch Cell viability test results (CCK) 100 uM for C[C@H]1CC[C@@H](C(=O)O)CN1C(=O)Cc1ccc(-c2ccc(F)cc2)cc1 [BnH12002] ; system: 293T cells
95

// fetch Cell viability test results (CCK) 100 uM for COc1ccc(-c2cccc(CC(=O)N3C[C@H](C(=O)O)CC[C@@H]3C)c2)cn1 [BnH12092] ; system: 293T cells
75

// fetch Cell viability test results (CCK) 100 uM for C[C@H]1CC[C@@H](C(=O)O)CN1C(=O)Cc1ccc(-c2cnc(C3CC3)nc2)cc1 [BnH12052] ; system: 293T cells
75

// fetch Cell viability test results (CCK) 100 uM for C[C@H]1CC[C@@H](C(=O)O)CN1C(=O)Cc1ccc(-c2ccc(C3CCCCC3)cc2)cc1 [BnH12085] ; system: 293T cells
0

// fetch Cell viability test results (CCK) 100 uM for C[C@H]1CC[C@@H](C(=O)O)CN1C(=O)Cc1cccc(-c2ccccc2)c1 [BnH12078] ; system: 293T cells
75

----------
- System: 293T cells
- procedure details: Cytotoxicity test (CCK-8 cell viability) in 293T cells
- Type: cell-based, human
- measurement conditions: 293T cell line, 100 uM
Strictly below 80 %< in Cell viability test results (CCK) 100 uM: fulfilled. Otherwise: not fulfilled.

Observe how each entry below is paired with its result.
C[C@H]1CC[C@@H](C(=O)O)CN1C(=O)Cc1ccc(-c2ccncc2)cc1; not fulfilled
C[C@H]1CC[C@@H](C(N)=O)CN1C(=O)Cc1ccc(-c2ncccn2)cc1; not fulfilled
Cc1ccc(-c2ccc(CC(=O)N3C[C@H](C(=O)O)CC[C@@H]3C)cc2)cn1; fulfilled
C[C@@H]1CC[C@H](C(=O)O)CN1C(=O)Cc1ccc(-c2cnccn2)cc1; not fulfilled
C[C@@H]1CC[C@H](C(=O)O)CN1C(=O)Cc1ccc(-c2cncnc2)cc1; fulfilled

Just wondering, is Cell viability test results (CCK) 100 uM of `C[C@H]1CC[C@@H](C(=O)O)CN1C(=O)Cc1ccc(-c2ccncn2)cc1` below 80 %<?
not fulfilled

Just wondering, is Cell viability test results (CCK) 100 uM of `COc1ccc(-c2ccc(CC(=O)N3C[C@H](C(=O)O)CC[C@@H]3C)cc2)cn1` below 80 %<?
fulfilled

Just wondering, is Cell viability test results (CCK) 100 uM of `C[C@H]1CC[C@@H](C(=O)O)CN1C(=O)Cc1ccc2c(c1)OCCO2` below 80 %<?
not fulfilled

Just wondering, is Cell viability test results (CCK) 100 uM of `C[C@H]1CC[C@@H](C(=O)O)CN1C(=O)Cc1ccc(-c2cnccn2)cc1` below 80 %<?
not fulfilled

Just wondering, is Cell viability test results (CCK) 100 uM of `C[C@H]1CC[C@@H](C(=O)O)CN1C(=O)Cc1cccc(-c2ccncc2)c1` below 80 %<?
not fulfilled

Just wondering, is Cell viability test results (CCK) 100 uM of `C[C@H]1CC[C@@H](C(=O)O)CN1C(=O)Cc1ccc(-c2ccc(N)cc2)cc1` below 80 %<?
fulfilled

Just wondering, is Cell viability test results (CCK) 100 uM of `C[C@H]1CC[C@@H](C(=O)O)CN1C(=O)Cc1ccc(-c2ccccc2)cc1` below 80 %<?
not fulfilled

Just wondering, is Cell viability test results (CCK) 100 uM of `C[C@H]1CC[C@@H](C(=O)O)CN1C(=O)Cc1ccc(-c2cccc(N)c2)cc1` below 80 %<?
not fulfilled

Just wondering, is Cell viability test results (CCK) 100 uM of `C[C@@H]1CC[C@H](C(=O)O)CN1C(=O)Cc1ccc(-c2cccnc2)cc1` below 80 %<?
not fulfilled

Just wondering, is Cell viability test results (CCK) 100 uM of `C[C@H]1CC[C@@H](C(=O)O)CN1C(=O)Cc1ccc(-c2ncc(F)cn2)cc1` below 80 %<?
not fulfilled

Just wondering, is Cell viability test results (CCK) 100 uM of `C[C@H]1CC[C@@H](C(=O)O)CN1C(=O)Cc1ccc(-c2ccco2)cc1` below 80 %<?
not fulfilled

----------
- Tested on: 293T cells
- procedure details: Cytotoxicity test (CCK-8 cell viability) in 293T cells
- Assay type: cell-based, human
- measurement conditions: 293T cell line, 100 uM
- Method: Human undifferentiated neuroblastoma cell line SH-SY5Y and human embryonic kidney cell line (HEK)-293T were purchased from Korean Cell Line Bank (Korea) and Takara (Japan), respectively. […] The time of co-incubation was 24 hours and six replicates were made for each measurement. […] These measurements were compared to that of a control and expressed as a percentage of the control to calculate cell viability. The IC50 value was calculated using SPSS software. […]
Measured Cell viability test results (CCK) 100 uM, listed per entry for reference.
Express the result in %< but write the number alone.

Take a look at these entries with their results.
CCN(CC)c1ccc(-c2ccc(CC(=O)N3C[C@H](C(=O)O)CC[C@@H]3C)cc2)cc1; 30
C[C@H]1CC[C@@H](C(=O)O)CN1C(=O)Cc1ccc(-c2cccnc2)cc1; 90
C[C@H]1CC[C@@H](C(=O)O)CN1C(=O)Cc1cccc(-c2cncnc2)c1; 75

We now examine a further compound.
// fetch Cell viability test results (CCK) 100 uM for `C[C@H]1CC[C@@H](C(=O)O)CN1C(=O)Cc1cccc(-c2ncc(F)cn2)c1` ; system: 293T cells
80
